These measurements were taken from ChEMBL document CHEMBL1136272.

Tested on: 5-hydroxytryptamine receptor 1B (Rattus norvegicus)
Sequence (P28564 whole entry): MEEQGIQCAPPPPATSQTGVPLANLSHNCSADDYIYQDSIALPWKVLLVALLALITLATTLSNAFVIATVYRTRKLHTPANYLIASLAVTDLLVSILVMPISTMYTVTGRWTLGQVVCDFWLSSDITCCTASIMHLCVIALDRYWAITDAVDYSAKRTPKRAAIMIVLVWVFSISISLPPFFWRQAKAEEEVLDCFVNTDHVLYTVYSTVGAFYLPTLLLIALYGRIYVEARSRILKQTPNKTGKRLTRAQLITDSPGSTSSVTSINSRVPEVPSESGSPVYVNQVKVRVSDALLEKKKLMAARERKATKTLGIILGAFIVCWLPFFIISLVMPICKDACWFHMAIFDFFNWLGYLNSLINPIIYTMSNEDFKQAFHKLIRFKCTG
Measurement kind: IC50

stdin: Report IC50 for COc1cccc(CN2CCN(C3CCC(O)(c4ccc5c(c4)OCO5)CC3)CC2)c1 (stereo unspecified) please.
stdout: > 100 µM

###

Tested on: Sodium-dependent serotonin transporter (Rattus norvegicus)
Sequence (P31652 whole entry): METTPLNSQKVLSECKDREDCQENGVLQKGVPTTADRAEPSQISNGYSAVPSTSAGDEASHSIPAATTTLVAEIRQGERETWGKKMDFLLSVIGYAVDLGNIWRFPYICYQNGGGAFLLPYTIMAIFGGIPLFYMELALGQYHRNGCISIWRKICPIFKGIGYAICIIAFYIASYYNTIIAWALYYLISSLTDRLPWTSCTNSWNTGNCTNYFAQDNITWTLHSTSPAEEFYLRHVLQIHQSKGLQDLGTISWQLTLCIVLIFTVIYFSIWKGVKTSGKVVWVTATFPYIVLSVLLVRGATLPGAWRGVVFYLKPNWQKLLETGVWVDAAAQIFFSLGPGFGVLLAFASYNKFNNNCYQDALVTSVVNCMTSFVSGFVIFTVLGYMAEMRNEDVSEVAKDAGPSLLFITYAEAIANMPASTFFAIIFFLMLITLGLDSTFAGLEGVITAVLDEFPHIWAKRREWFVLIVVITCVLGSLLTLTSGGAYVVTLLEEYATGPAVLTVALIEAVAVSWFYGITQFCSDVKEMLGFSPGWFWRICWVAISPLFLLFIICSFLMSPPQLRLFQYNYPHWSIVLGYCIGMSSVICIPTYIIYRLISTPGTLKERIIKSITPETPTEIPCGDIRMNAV
Assay notes: Inhibitory concentration required against 5-HT uptake in rat cortex
Measurement kind: IC50 (µM)
// note: answer is a bare numeric in µM

stdin: Quick one: IC50 of COc1cccc(CN2CCN(C3CCC(O)(c4ccc5c(c4)OCO5)CC3)CC2)c1 (configuration not stated) ?
stdout: 3
